- System: MTAP-deleted cell line
- ASSAY PROTOCOL: viability assay for the MTAP-deleted cell line
- Format: cell-based
- TEST SETTINGS: Homo sapiens, HAP1, viability assay
READOUT TYPE: IC50

Example results:
C[C@@H]1CC[C@H](c2ccnn2C)N(C(=O)C(=O)Nc2cnc(N)c3cn[nH]c23)C1 (stereo in doubt) [Compound 272] :: 0.1 to 1 µM
C[C@H]1CC[C@H](c2ccc3sc([C@@H](C)CN4CCCC4)nc3c2)N(C(=O)C(=O)Nc2cncc3cn[nH]c23)C1 :: < 0.1 µM
C[C@H]1CC[C@H]([C@@H]2CCOC2)N(C(=O)C(=O)Nc2cnc(N)c3cn[nH]c23)C1 (single isomer, unassigned) :: 0.1 to 1 µM
C[C@H]1CC[C@H](c2ccc3sc(C4CC(C)(C)N(C)C(C)(C)C4)nc3c2)N(C(=O)C(=O)Nc2ccn3ccnc3c2)C1 :: < 0.1 µM
C[C@H]1CC[C@H](c2ccc3sc([C@H]4CCN(C)C4)nc3c2)N(C(=O)C(=O)Nc2cncc3cn[nH]c23)C1 (single isomer, unassigned) :: < 0.1 µM

Input C[C@H]1CC[C@H](c2ccc3sc(C4CN(C)C4)nc3c2)N(C(=O)C(=O)Nc2cncc3cn[nH]c23)C1 . Output IC50: < 0.1 µM

Input C[C@H]1CC[C@H](c2cccc(OC[C@H](C)N(C)C)c2)N(C(=O)C(=O)Nc2cnc(N)c3cn[nH]c23)C1 . Output IC50: < 0.1 µM

* * *

- System: HAP1 MTAP-intact cell line
- ASSAY PROTOCOL: SDMA in-cell western assay, HAP1 MTAP-intact
- TEST SETTINGS: Homo sapiens, HAP1, read-out: Hap1 MTAP intact IC50, SDMA in-cell western, HAP1 MTAP-intact cell line
pIC50: −log10 of the molar value.
READOUT TYPE: pIC50

Example results:
C[C@H]1CC[C@H](c2ccc3sc([C@@H](C)CN4CCCC4)nc3c2)N(C(=O)C(=O)Nc2cncc3cn[nH]c23)C1 :: < 7.30
C[C@H]1CC[C@H](c2ccc3ccc(C4CCN(C)CC4)nc3c2)N(C(=O)C(=O)Nc2cncc3cn[nH]c23)C1 :: < 7.30
C[C@H]1CC[C@H](c2ccc3sc(C4CN(C)C4)nc3c2)N(C(=O)C(=O)Nc2cncc3cn[nH]c23)C1 :: 7.30 to 8.30

Now examine the next entry.
Input C[C@H]1CC[C@H](c2ccc3ccc(C4CCN(C)CC4)nc3c2)N(C(=O)C(=O)Nc2ccn3ccnc3c2)C1 . Output pIC50: < 7.30

* * *

Catalogue of pIC50 values
- System: HAP1 MTAP-intact cell line
- ASSAY PROTOCOL: SDMA in-cell western assay, HAP1 MTAP-intact
- TEST SETTINGS: Homo sapiens, HAP1, read-out: Hap1 MTAP intact IC50, SDMA in-cell western, HAP1 MTAP-intact cell line
pIC50: −log10 of the molar value.

C[C@H]1CC[C@H](c2ccc3sc(C4CC(C)(C)N(C)C(C)(C)C4)nc3c2)N(C(=O)C(=O)Nc2ccn3ccnc3c2)C1 :: 7.30 to 8.30
C[C@H]1CC[C@H](c2cccc(C(F)(F)F)c2)N(C(=O)C(=O)Nc2cnc(N)c3cn[nH]c23)C1 :: < 7.30
C[C@H]1CC[C@H](c2ccc3sc(C4CCN(C)CC4)nc3c2)N(C(=O)C(=O)Nc2ccn3ccnc3c2)C1 :: 7.30 to 8.30
C[C@H]1CC[C@H](c2ccc3nn([C@@H]4CCN(C)C4)cc3c2)N(C(=O)C(=O)Nc2cncc3cn[nH]c23)C1 :: < 7.30
Cc1ncc([C@H]2CC[C@H](C)CN2C(=O)C(=O)Nc2cnc(N)c3cn[nH]c23)cc1Cl :: < 7.30

Now examine the next entry.
Input C[C@H]1CC[C@H](c2ccc3sc([C@@H]4CCN(C)C[C@@H]4C)nc3c2)N(C(=O)C(=O)Nc2cncc3cn[nH]c23)C1 (relative stereo) . Output pIC50: < 7.30
